# System: Mus musculus
# PROTOCOL TEXT: Induction of IL2 secretion in BALB/c mouse serum at 2 ug, iv after 2 hrs relative to control
# Type: functional
Labelling field: enter met if recorded Activity is less than 50. Enter not met if it equals or exceeds that cut-off.

Field: example entries. Status: answers known.
COMPOUND: CCCCCCCCCCCCCCCCCCCCCCCCCC(=O)N[C@@H](CO[C@H]1O[C@H](CO)[C@H](O)[C@H](O)[C@H]1O)[C@H](O)[C@H](O)CCc1ccccc1
ASSAY SYSTEM: Mus musculus
GROUP LABEL: not met

COMPOUND: CCCCCCCCCCCCCCCCCCCCCCCCCC(=O)N[C@@H](CO[C@H]1O[C@H](CO)[C@H](O)[C@H](OS(=O)(=O)[O-])[C@H]1O)[C@H](O)[C@H](O)CCCCCCCCCCCCCC.[Na+]
ASSAY SYSTEM: Mus musculus
GROUP LABEL: met

COMPOUND: CCCCCCCCCCCCCCCCCCCCCCCCCC(=O)N[C@@H](CO[C@H]1O[C@H](CO)[C@H](O)[C@H](O)[C@H]1O)[C@H](O)[C@H](O)CCCCCCCCCCCCCC [RGI-7000]
ASSAY SYSTEM: Mus musculus
GROUP LABEL: not met

COMPOUND: CCCCCCCCCCCCCCCCCCCCCCCCCC(=O)N[C@@H](CO[C@H]1O[C@H](C(=O)O)[C@H](O)[C@H](O)[C@H]1O)[C@H](O)[C@H](O)CCCCCCCCCCCCCC
ASSAY SYSTEM: Mus musculus
GROUP LABEL: met

COMPOUND: CCCCCCCCCCCCCC[C@@H](O)[C@@H](O)[C@H](CO[C@H]1O[C@H](CO)[C@H](O)[C@H](O)[C@H]1O)NC(=O)CCCCCCCc1ccccc1
ASSAY SYSTEM: Mus musculus
GROUP LABEL: not met

Does CCCCCCCCCCCCCC[C@@H](O)[C@@H](O)[C@H](CO[C@H]1O[C@H](CO)[C@H](O)[C@H](O)[C@H]1O)NC(=O)CCCCCCCCCCCCC have Activity strictly under 50?
met

Does CCCCCCCCCCCCCCC[C@@H](O)[C@H](CO[C@H]1O[C@H](C(=O)O)[C@H](O)[C@H](O)[C@H]1O)NC(=O)CCCCCCCCCCCCC have Activity strictly under 50?
met
